The measured values listed here are drawn from paper PMC10397247.

# TEST_TARGET: T1, 4H342-bN
# T1 chain: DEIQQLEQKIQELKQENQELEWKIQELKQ
# EXPERIMENT_NOTES: two-hybrid library CCNG1;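 note: natural log of median RNA to DNA barcode read ratio; higher means stronger binding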
MEASURED_PARAMETER: interaction score
Answers are plain numbers.

[
  {
    "BINDER": "DKIQQLKQEIQELEQKNQELKWENQELEQ [4H2619-bN]",
    "NUMERIC_RESULT": 1.23
  },
  {
    "BINDER": "DEIQQLEQKIQELKQENQELEWKIQELKQ [4H342-bN]",
    "NUMERIC_RESULT": 1.33
  },
  {
    "BINDER": "DENQQLEQKIQELKQEIQELEWENQELEQ [4H1347-bN]",
    "NUMERIC_RESULT": -0.286
  }
]

Supply recorded interaction score for DKIQQLKQKNQELKQKNQELKWKIQELKQ [4H3070-bN] here.
0.751
